recorded.metric: melting point (°C)

{"columns": ["compound", "recorded.value"],
 "data": [
  ["CCOc1ccc(NC(=O)N(C)c2nc(C)c(S(=O)(=O)NC(C)C)s2)cc1", 192],
  ["CCOc1ccc(NC(=O)N(Cc2ccccc2)c2nc(C)c(S(=O)(=O)NC3CC3)s2)cc1", 178],
  ["Cc1nc(N(C)C(=O)Nc2ccc(OCC(C)(C)C)cc2)sc1S(=O)(=O)N(C)C", 158],
  ["CCOc1ccc(NC(=O)N(CCCNC(=O)OC(C)(C)C)c2nc(C)c(S(=O)(=O)NCC(F)(F)F)s2)cc1 [136]", 150],
  ["CCCN(C(=O)Nc1ccc(-c2ccccc2)cc1)c1nc(C)c(S(=O)(=O)NCCO)s1", 156],
  ["CCOc1ccc(NC(=O)N(C)c2nc(C)c(S(=O)(=O)NCc3ccc4c(c3)OCO4)s2)cc1", 178],
  ["CCOc1ccc(NC(=O)N(CCN(C)C)c2nc(C)c(S(N)(=O)=O)s2)cc1", 162],
  ["CCN(C(=O)Nc1ccc(N2CCOCC2)cc1)c1nc(Cl)c(S(=O)(=O)N(C)C)s1", 190],
  ["CCOc1ccc(NC(=O)N(Cc2cccnc2)c2nc(C)c(S(=O)(=O)NC)s2)cc1", 212],
  ["CCCN(C(=O)Nc1ccc(OCC)cc1)c1nc(C)c(S(=O)(=O)NC2CC2)s1", 141],
  ["CCOc1ccc(NC(=O)N(C)c2nc(Cl)c(S(=O)(=O)NCc3ccccc3)s2)cc1", 170],
  ["CCOc1ccc(NC(=O)N(CCN(C)C)c2nc(C)c(S(=O)(=O)N(C)C)s2)cc1", 163],
  ["CN(C(=O)Nc1ccc(N2CCOCC2)c(Cl)c1)c1nc(Cl)c(S(=O)(=O)N(C)C)s1", 203],
  ["CNS(=O)(=O)c1sc(N(Cc2ccncc2)C(=O)Nc2ccc(N3CCCC3)cc2)nc1C", 208],
  ["CCOc1ccc(NC(=O)N(CCOC)c2nc(C)c(S(=O)(=O)NC)s2)cc1", 159],
  ["CCOc1ccc(NC(=O)N(Cc2ccncc2)c2nc(C)c(S(=O)(=O)N(C)C)s2)cc1", 188],
  ["Cc1nc(N(C)C(=O)Nc2ccc(-c3ccccc3)cc2)sc1S(=O)(=O)N(C)C", 228],
  ["CCOc1ccc(NC(=O)N(C)c2ncc(S(=O)(=O)NCc3ccccc3)s2)cc1", 171],
  ["CCOc1ccc(NC(=O)N(CCCO)c2nc(C)c(S(=O)(=O)N(C)C)s2)cc1", 147],
  ["CCOc1ccc(NC(=O)N(C)c2nc(C)c(S(=O)(=O)NCc3cccnc3)s2)cc1", 158],
  ["CCOc1ccc(NC(=O)N(CCOC)c2nc(C)c(S(=O)(=O)N(C)C)s2)cc1", 162],
  ["CCOc1ccc(NC(=O)N(C)c2nc(C)c(S(=O)(=O)NC)s2)cc1", 179],
  ["CCOc1ccc(NC(=O)Nc2nc(C)c(S(=O)(=O)N3CCCC3)s2)cc1", 198],
  ["CCOc1ccc(NC(=O)N(Cc2cccnc2)c2nc(C)c(S(N)(=O)=O)s2)cc1", 193]
]}
